# Tested on: CEM cells HIV-1 protection, formazan growth assay
# Measurement notes: NCI AIDS Antiviral Assay
# Procedure: The ability of compounds to protect human CEM cells from HIV-1 infection is measured as a screen for new compounds capable of inhibiting the HIV virus. Five concentrations of drug were tested on uninfected and infected cells and cell growth was measured using a soluble formazan assay. […] Compounds that provided at least 50% protection were retested. Compounds that provided at least 50% protection on retest were listed as moderately active. […]
pEC50: −log10 of the molar value.
Catalogue of compounds with associated pEC50

INSERT INTO assay_data (compound, attribute_measured, observed_measurement) VALUES
  ('CC(C)Sc1nc(C#N)cc2c1CCCC2', 'pEC50', '< 3.70'),
  ('Cc1cc(C)cc(/C(C#N)=C/c2ccc(N(C)C)cc2)c1', 'pEC50', '< 5.70'),
  ('Cc1ccc(S(=O)(=O)Nc2nnc(S(N)(=O)=O)s2)cc1', 'pEC50', '< 3.70'),
  ('CC(=O)CCC(=O)C(=[N+]=[N-])S(=O)(=O)c1ccccc1', 'pEC50', '< 3.05');

Query: Can you share its pEC50? I mean this compound: Cc1cc(OC(=O)c2c(C)cc(OC(=O)c3c(C)cc(O)cc3O)cc2O)cc(O)c1C(=O)O
Response: < 4.11

Query: Same question for O=C1C=C(Nc2ccccc2C(=O)CC(=O)C(=O)Nc2ccc(Cl)cc2)c2ccccc2C1=O please.
Response: < 4.40

Query: Same question for CCCCOC(=O)/C(CC(=O)C=C(C)C)=N\NS(=O)(=O)c1ccc(C)cc1 please.
Response: < 3.76

Query: Same question for c1ccc(CN[C@]23C4C5CC6C7C5C2C7[C@@](NCc2ccccc2)(C64)N3Cc2ccccc2)cc1 (stereo not given in full) please.
Response: < 3.70

Query: Same question for O=C(O)c1cc(C(=O)Nc2ccc(C3=NCCN3)cc2)c(C(=O)O)cc1C(=O)Nc1ccc(C2=NCCN2)cc1 please.
Response: < 3.70

Query: Same question for COP(=O)(CCC1OCCO1)OC please.
Response: < 3.70

----------
# Test system: CEM cells HIV-1 protection, formazan growth assay
# Measurement notes: NCI AIDS Antiviral Assay;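 active means compounds giving half or more protection of infected cells from virus-caused growth loss, again on retest; inactive means the rest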
Choose one outcome from this list and give only that: class 1 = active, class 0 = inactive

Answered examples (6):
INSERT INTO assay_data (compound, target, class_name) VALUES
  ('C1CN1c1nc(N2CC2)nc(N2CC2)n1', 'CEM cells HIV-1 protection, formazan growth assay', 'class 0'),
  ('O=c1ccn([C@H]2CSC[C@@H](CO)C2)c(=O)[nH]1', 'CEM cells HIV-1 protection, formazan growth assay', 'class 0'),
  ('CCOC(=O)/C(F)=C/c1cccc(C#N)c1', 'CEM cells HIV-1 protection, formazan growth assay', 'class 0'),
  ('CC(=O)N/N=C1\NN(C(C)=O)C2(S1)C(=O)Nc1ccccc12 (centres undefined)', 'CEM cells HIV-1 protection, formazan growth assay', 'class 0'),
  ('O=C(NCCc1ccccc1)/C(=C\c1ccc(Cl)cc1Cl)NC(=O)c1ccccc1', 'CEM cells HIV-1 protection, formazan growth assay', 'class 0'),
  ('C/C(O)=C(/C=N/C(=S)Nc1ccc(S(N)(=O)=O)cc1)C(=O)Nc1ccccc1C', 'CEM cells HIV-1 protection, formazan growth assay', 'class 0');

Query: Could you kindly confirm the outcome this assay logged for CN(C)c1ccc(-c2nc(N)nc3c2CCCC3)cc1 ?
Response: class 0

----------
# System: CEM cells HIV-1 protection, formazan growth assay
# Measurement notes: NCI AIDS Antiviral Assay
# Run parameters: measured here: growth of uninfected CEM cells
pIC50: −log10 of the molar value.
Attribute measured: pIC50

Answered cases to consult:
INSERT INTO results (compound, observed_measurement) VALUES
  ('CCOc1ccccc1N=C(NC(=O)CC)SC', '< 4.74'),
  ('N#Cc1c(N2CCCC2)ncn(-c2ccccc2)c1=O', '< 3.70'),
  ('O=C1CCC2SC1CCC2=O', '< 3.70');

Please turn your attention to the following entry.
Query: Form field - read-out: pIC50; system: CEM cells HIV-1 protection, formazan growth assay; submitted item: C/C(CC(O)(C(F)(F)F)C(F)(F)F)=N\N
Response: < 3.70

----------
# Test system: CEM cells HIV-1 protection, formazan growth assay
# Measurement notes: NCI AIDS Antiviral Assay
pEC50: −log10 of the molar value.
Attribute measured: pEC50

Answered cases to consult:
INSERT INTO results (compound, observed_measurement) VALUES
  ('Cc1cc(=O)n2nc(CSc3nnc(Sc4cc(O)ccc4O)s3)sc2n1', '< 3.70'),
  ('CCCN1CN(c2ccccc2)C2(CCN(CCCC(=O)c3ccc(F)cc3)CC2)C1=O', '< 3.70'),
  ('CC(C)CN(CC(C)C)C(=O)C1CCCC[C@@H]1C(=O)O (stereo not given in full)', '< 3.05'),
  ('N#Cc1c(C#N)c(-c2cccc([N+](=O)[O-])c2)n(-c2ccccc2)c1N', '< 3.70');

Please turn your attention to the following entry.
Query: Can you share its pEC50? I mean this compound: NC(=O)CNC(=O)c1ccccc1SC(=O)CC[n+]1ccccc1
Response: < 3.70

----------
# Tested on: CEM cells HIV-1 protection, formazan growth assay
# Measurement notes: NCI AIDS Antiviral Assay
# Run parameters: measured here: growth of uninfected CEM cells
# Protocol: The ability of compounds to protect human CEM cells from HIV-1 infection is measured as a screen for new compounds capable of inhibiting the HIV virus. Five concentrations of drug were tested on uninfected and infected cells and cell growth was measured using a soluble formazan assay. […] Compounds that provided at least 50% protection were retested. Compounds that provided at least 50% protection on retest were listed as moderately active. […]
// boundary case: IC50 equal to 60 µM maps to not fulfilled; strictly smaller maps to fulfilled

Answered examples (10):
INSERT INTO measurements (molecule, class_name) VALUES
  ('O=C(Nc1ccc(Cl)c(Cl)c1)OCn1ncc2ccc([N+](=O)[O-])cc21', 'not fulfilled'),
  ('O=C(OC1C#CCSCC#C/C=C\1)c1cnc2ccccc2n1 (configuration not stated)', 'fulfilled'),
  ('COc1ccc2nc3c([N+](=O)[O-])ccc(NCCCN(C)C)c3c(N)c2c1', 'fulfilled'),
  ('CN(C)CCN1CCC(Cc2ccccc2)CC1', 'not fulfilled'),
  ('CC(=O)NCCC1CN(C(=O)/C=C/I)c2ccccc21 (configuration not stated)', 'fulfilled'),
  ('C=C1C(O)O[C@@H]2O[C@@]3(C)CC[C@H]4[C@H](C)CC[C@@H]1[C@@]24OO3 (some centres not stated)', 'fulfilled'),
  ('Nc1ncc2c(ncn2CC(O)CO)n1 (configuration not stated)', 'not fulfilled'),
  ('N#Cc1c(C#N)c(-c2ccccc2)n(-c2ccccc2)c1N', 'fulfilled'),
  ('CC(=O)CC1=C(OC(C)C)C2(OCCO2)C1O (configuration not stated)', 'not fulfilled'),
  ('CCCC(C(=O)OC)C1N=C(NC#N)N(Cc2ccccc2)C1=O (configuration not stated)', 'not fulfilled');

Query: # TODO verify IC50 < 60 µM strictly for this molecule: COC(=O)c1cc(C(CCl)c2cc(C(=O)OC)c(O)cc2C)c(C)cc1O
Response: not fulfilled

Query: Same question for O=C(OCC(Cl)(Cl)Cl)N1CC[C@H](C2CCCCC2)C1 please.
Response: fulfilled

Query: Same question for Nc1ccc(/C=C/c2ccc(NCc3c(O)cc(O)cc3C(=O)O)cc2S(=O)(=O)O)c(S(=O)(=O)O)c1 please.
Response: not fulfilled

Query: Same question for CN(C)CC(/C(Cc1ccccc1)=N\NC(=O)C[n+]1ccccc1)c1ccccc1 (configuration not stated) please.
Response: not fulfilled

Query: Same question for Oc1c(NCn2nc(CCCCCCCCc3nn(CNc4ccc5ccccc5c4O)c(=S)o3)oc2=S)ccc2ccccc12 please.
Response: fulfilled

----------
Catalogue of molecules with associated EC50
# Tested on: CEM cells HIV-1 protection, formazan growth assay
# Measurement notes: NCI AIDS Antiviral Assay

Answered cases to consult:
INSERT INTO measurements (molecule, target, observed_measurement) VALUES
  ('CCCCOP(=O)(/C=C/c1ccc([N+](=O)[O-])cc1)OCCCC', 'CEM cells HIV-1 protection, formazan growth assay', '> 20.9 µM'),
  ('O=C1OCCOCCSCCOCCOC(=O)c2cccc1n2', 'CEM cells HIV-1 protection, formazan growth assay', '> 537 µM'),
  ('COC(=O)c1nn(C(=N)c2ccc(Cl)cc2)c2c1CCC2', 'CEM cells HIV-1 protection, formazan growth assay', '> 813 µM'),
  ('Cn1c2ccc3cc2c(=S)c2cc(ccc21)OCCOCCOCCOCCOCCO3', 'CEM cells HIV-1 protection, formazan growth assay', '> 200 µM'),
  ('O=C1NC2C=CN(Cc3ccccc3)C=C2C(=O)N2CCCC12 (stereo not drawn)', 'CEM cells HIV-1 protection, formazan growth assay', '> 6.46 µM'),
  ('CNP(=O)(NC)NC', 'CEM cells HIV-1 protection, formazan growth assay', '> 200 µM');

Query: Can you share its EC50? I mean this molecule: CN1CCN(C2=NCCO2)CC1
Response: > 200 µM

Query: Same question for COc1cc2c(cc1OC)C(C1(O)CCCCC1)NCC2 (stereo not drawn) please.
Response: > 851 µM

Query: Same question for CNc1ccc(C)cc1S(=O)(=O)c1ccc(OC)cc1 please.
Response: > 200 µM

Query: Same question for O=C(CNc1ccccn1)Nn1cnc2ccc(S(=O)(=O)Nc3ccccn3)cc2c1=O please.
Response: > 200 µM

Query: Same question for O=C1c2ccccc2CC12Cc1cc3c(cc1C2)CCC3 please.
Response: > 200 µM

Query: Same question for Clc1ccc2nc3occ(Br)c3cc2c1 please.
Response: > 13.2 µM

Query: Same question for CCOc1cc2c(cc1O)/C(=N/NS(=O)(=O)c1ccc(C)cc1)C[C@@H]1[C@@H]2CC[C@]2(C)[C@@H](O)CC[C@@H]12 please.
Response: > 200 µM

Query: Same question for CCOC(=O)c1sc(N/N=C2\NC(=O)/C(=C/c3ccc([N+](=O)[O-])cc3)S2)nc1C please.
Response: > 200 µM

Query: Same question for O=C(Nc1nc(=S)[nH][nH]1)C(=O)C(c1cnc2ccc([N+](=O)[O-])cc2n1)[N+](=O)[O-] (stereo not drawn) please.
Response: > 447 µM

Query: Same question for CC(C)(c1ccccc1)C(C)(C)c1nc(-c2ccccc2)cc(-c2ccccc2)n1 please.
Response: > 3.72 µM

Query: Same question for Cc1cc([N+](=O)[O-])ccc1Sc1c2ccccc2nc2cc(Cl)ccc12 please.
Response: > 19.1 µM
